- Test system: 786-O
- Method: Euclidean distance of Cell Painting phenotypic profile (signed KS, 77 features) to DMSO centroid (dimensionless distance); 5 or 10 uM (library dependent); higher = stronger phenotypic change vs DMSO (phenoactivity)
- Test context: 48 h
Where a name gives a salt, the structure may show the parent alone.
# Euclidean distance >= 1 gives condition met, anything below gives condition not met

Molecule	Qualitative label
CC[C@H]1OC(=O)[C@H](C)[C@@H](O[C@H]2C[C@@](C)(OC)[C@@H](O)[C@H](C)O2)[C@H](C)[C@@H](O[C@@H]2O[C@H](C)C[C@H](N(C)C)[C@H]2O)[C@](C)(O)C[C@@H](C)CN(C)[C@H](C)[C@@H](O)[C@]1(C)O [Azithromycin]	condition not met
O=C(c1ccc(OCCN2CCCCC2)cc1)c1c(-c2ccc(O)cc2)sc2cc(O)ccc12 [Raloxifene]	condition met
CNC(=O)c1ccc(Nc2ncc(C(F)(F)F)c(NCc3nccnc3N(C)S(C)(=O)=O)n2)cc1	condition met
CC(C)C[C@H](NC(=O)[C@H](CCc1ccccc1)NC(=O)CN1CCOCC1)C(=O)N[C@@H](Cc1ccccc1)C(=O)N[C@@H](CC(C)C)C(=O)[C@@]1(C)CO1 [Carfilzomib (PR-171)]	condition met
Cc1[nH]c(=O)c(C#N)cc1-c1ccc2nccn2c1 [Olprinone]	condition met
C[C@]1(COc2ccc(N3CCC(Oc4ccc(OC(F)(F)F)cc4)CC3)cc2)Cn2cc([N+](=O)[O-])nc2O1 [Delamanid]	condition not met
N=C(N)NC(=O)c1nc(Cl)c(N)nc1N [Amiloride HCl dihydrate]	condition met
CC1(C)S[C@@H]2[C@H](NC(=O)C(c3ccccc3)S(=O)(=O)O)C(=O)N2[C@H]1C(=O)O (some centres undefined) [Sulbenicillin Sodium]	condition not met
COc1ccc2cc3[n+](cc2c1OC)CCc1cc2c(cc1-3)OCO2 [Berberine chloride]	condition met
CC(=O)OCC(=O)[C@@]1(O)CC[C@H]2[C@@H]3CCC4=CC(=O)CC[C@]4(C)[C@H]3[C@@H](O)C[C@@]21C [Hydrocortisone acetate]	condition met
O=C(Nc1ccccc1)c1ccccc1O [Salicylanilide]	condition not met
Cc1cc(=O)oc2cc(O)ccc12 [4-Methylumbelliferone (4-MU)]	condition not met
O=C(O)c1ccc(Nc2ncc3c(n2)-c2ccc(Cl)cc2C(c2c(F)cccc2F)=NC3)cc1	condition met
